Every entry's value here was drawn from patent US20190127359A1.

# targetOfAssay: VHL (Homo sapiens)
# assayDetails: Fluorescence polarization competition assay (HIF-1α peptide FP displacement)
# recordedConditions: IC50 (μM) 10% DMSO, 10% DMSO
measuredAttribute: IC50 (µM)

Please review the following examples before continuing.
[
  {
    "smilesRecord": "Nc1ccc(C(=O)N2C[C@H](O)C[C@H]2C(=O)NCc2ccc(Cl)cc2)cc1",
    "IC50 (µM)": 29.5
  },
  {
    "smilesRecord": "Cc1cc(CC(=O)N2C[C@H](O)C[C@H]2C(=O)NCc2cccc(Cl)c2)on1",
    "IC50 (µM)": 123
  }
]

a: Cc1cc(CC(=O)N2C[C@H](O)C[C@H]2C(=O)NCc2ccc(-c3ccc(F)nc3)cc2)on1
b: Cc1n[nH]cc1C(=O)N1C[C@H](O)C[C@H]1C(=O)NCc1ccc(Cl)cc1
c: Cc1cc(CC(=O)N2C[C@H](O)C[C@H]2C(=O)NCc2cccc3ccccc23)on1
Order the entries by their reported IC50, beginning at the minimum. Output spec: labels arranged per the requested ranking. a, b, c
